- target_entity: USP28 (Homo sapiens (Human))
- Sequence (Q96RU2 whole entry): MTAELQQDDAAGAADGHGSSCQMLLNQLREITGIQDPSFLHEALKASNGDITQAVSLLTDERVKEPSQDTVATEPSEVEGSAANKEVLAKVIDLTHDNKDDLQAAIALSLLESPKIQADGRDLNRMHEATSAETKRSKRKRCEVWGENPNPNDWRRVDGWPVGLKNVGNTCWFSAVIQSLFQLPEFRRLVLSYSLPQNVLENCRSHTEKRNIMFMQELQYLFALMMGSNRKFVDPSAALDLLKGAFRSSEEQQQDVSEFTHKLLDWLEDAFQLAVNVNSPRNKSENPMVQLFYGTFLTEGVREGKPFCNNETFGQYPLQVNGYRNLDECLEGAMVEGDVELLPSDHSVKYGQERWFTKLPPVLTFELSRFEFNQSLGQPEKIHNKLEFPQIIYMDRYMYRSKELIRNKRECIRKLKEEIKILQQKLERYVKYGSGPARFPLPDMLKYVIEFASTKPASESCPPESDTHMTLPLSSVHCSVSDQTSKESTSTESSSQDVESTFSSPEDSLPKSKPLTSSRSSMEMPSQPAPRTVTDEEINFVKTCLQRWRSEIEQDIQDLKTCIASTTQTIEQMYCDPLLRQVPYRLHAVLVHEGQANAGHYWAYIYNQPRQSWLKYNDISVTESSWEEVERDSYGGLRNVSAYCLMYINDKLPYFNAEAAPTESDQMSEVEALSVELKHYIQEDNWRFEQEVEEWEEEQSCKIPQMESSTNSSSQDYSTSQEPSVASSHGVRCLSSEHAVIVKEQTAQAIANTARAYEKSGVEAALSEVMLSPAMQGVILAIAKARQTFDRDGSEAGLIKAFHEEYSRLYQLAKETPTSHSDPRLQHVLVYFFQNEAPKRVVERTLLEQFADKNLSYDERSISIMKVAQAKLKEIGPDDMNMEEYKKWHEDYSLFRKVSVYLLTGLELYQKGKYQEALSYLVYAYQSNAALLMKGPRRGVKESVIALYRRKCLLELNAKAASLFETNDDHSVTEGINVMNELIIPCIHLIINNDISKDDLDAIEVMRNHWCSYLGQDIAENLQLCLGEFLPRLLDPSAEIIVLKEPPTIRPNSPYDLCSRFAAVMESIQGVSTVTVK
Each entry below carries its reported IC50.

Problem: For USP28 (Homo sapiens (Human)), provide IC50 of Cc1ccc2c(N)c(C(=O)NC[C@@H](C)c3ccc(N4CC5CCC(C4)N5)c(C#N)c3)sc2n1 (single isomer, unassigned) please.
Result: 200 to 2000 nM

Problem: For USP28 (Homo sapiens (Human)), provide IC50 of Cc1ccc2c(N)c(C(=O)NCCc3cc(F)c(N4C[C@@H]5C[C@H]4CN5)cc3F)sc2n1 please.
Result: < 200 nM

Problem: For USP28 (Homo sapiens (Human)), provide IC50 of Nc1c(C(=O)NCCc2ccc(N3CCNCC3)cc2)sc2nc3c(cc12)CCCC3 please.
Result: 2000 to 10000 nM

Problem: For USP28 (Homo sapiens (Human)), provide IC50 of Cc1cc(C(F)(F)F)c2c(N)c(C(=O)NCCc3ccc(N4CCNCC4)cc3)sc2n1 please.
Result: 200 to 2000 nM
